Parameter: Avg % Deletion. Scope: all listed entries.
Test system: TTR
measurement-notes: TTR editing in primary human hepatocytes transfected with Spy Cas9 mRNA and dgRNAs (Table 9)
Format: cell-based
conditions: dgRNA co-transfected with Spy Cas9 mRNA (SEQ ID NO:2)
Express your answer as a number followed by its unit.

Some entries whose results are on file:
entry-sequence: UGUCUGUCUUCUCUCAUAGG (tested as dual guide RNA, chemistry not given here) [CR005307]
system-name: TTR
value-observed: 9.30%

entry-sequence: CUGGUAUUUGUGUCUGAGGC (tested as dual guide RNA, chemistry not given here) [CR003341]
system-name: TTR
value-observed: 9.07%

entry-sequence: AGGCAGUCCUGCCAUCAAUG (tested as dual guide RNA, chemistry not given here) [CR003348]
system-name: TTR
value-observed: 15.80%

entry-sequence: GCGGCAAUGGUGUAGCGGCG (tested as dual guide RNA, chemistry not given here) [CR003377]
system-name: TTR
value-observed: 0.57%

Consider now this further sequence.
Query: Give the value of Avg % Deletion reported for the following: UCCACUCAUUCUUGGCAGGA (tested as dual guide RNA, chemistry not given here) [CR005298]
Response: 11.60%
